# System: MS2 coat protein
# test.summary: apparent KD of MS2 coat protein; higher = weaker reporter binding
# particulars: Eterna round: R107; input ligand: tryptophan 2.4 mM
recorded.metric: apparent KD of MS2 coat protein (nM)
Answers are plain numbers, in nM.

GCUGCUUUGGGAAGGAGCGCUGCGGUAUUGUGGCGGACAUGAGGAUCACCCAUGUGCCUGCAGCAGGUAGGUCGCUUAGGGCAGC [EAP NP+V+V2 #17] | 58.4
ACAUGAGGAUCACCCAUGUCACGGCACGAUACCAGCUGAUGCGGUGGCCCUUGGCAGCGUGACGUUUGGUCCCGCGGAUGACACG [qsmullin] | 240
GAUUUUACAAAAGUAAAAUCAGUGGGUGAACGAGGACCGGUACGGCCGCCACUCGGACAUGAGGAUCACCCAUGUCCAUGUGAAA [AstrosExyTryA#21] | 61.9
UGUUUGGUGCGCGAGUGUUGGAUAAUUGAUACCAGUGUAGAUGUGCGCCCUUGGCAGCGAAUCCUAACAUGAGGAUCACCCAUGU [5.Y] | 41.8
CCAUGCAGGUCGGCCGCCACUACACACAUGAGGAUCACCCAUGUAGUUACUGGGUGAAGUGGCAGUAGGACCGGGACCUGCACAC [Brourdmod20] | 335

Query string: Name the reported apparent KD of MS2 coat protein value associated with the sequence GUAUACAUGAGGAUCACCCAUGUACCAGAAGGAGCGCUGGAAACAGCAGGUAGGUCGCUGGUAGGUCCUCUAUCUAGACGUUCUU [EAA NP+V+V2 #6]
Result string: 110

* * *

# Test system: K4 kissing-loop RNA reporter;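 also: bound reporter read as fluorescence of individual clusters on recovered sequencing chips by microscopy, with normalized cluster intensities fitted with a binding model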
# test.summary: apparent KD of K4 kissing-loop reporter; higher = weaker reporter binding
# particulars: Eterna round: R107; input ligand: theophylline 20 uM
What apparent KD of K4 kissing-loop reporter was measured for each of the following?
Numbers only, in nM.

GCCGUACGCAUGGAUACCAGCAUGCAUAUUAGCUAGUGAUGUUAGCGCUAUGCGAUGCUAUGCCCUUGGCAGCCAUGCGUACGGC | 247
ACUUGAGCACAUAGCACACCAAGCAGUAGGUAGGAUAUCCGGCUUAGGAGAAGGACCAUGCAGUGAUGUUGCAUGCUCCUCCAUG [Zaribies] | 92.3
ACAAAAGUGAUGUUUUUGAACGUGCGCGAUACCAGAAAUGUCUUCUUCCCUUGGCAGCGCUAUUACUUGUAAGAAAGUACGUUUC [theeternabot_sameState_KL_Theo_A_17] | 774

Batch request: apparent KD of K4 kissing-loop reporter for each of the following sequences.
1. CGAGUCCUGAGGAGUGAUGUUCCUCGGCCACGAGGACCGGUACGGCCGCCACUCGUUACUCGGGCUUAGUGGCUAGCACUAAGCU [Tirete]
2. AAGUAGCUCUCGGCCGCCACUCCUCAGUGAUGUUGAGAUUUUUUCUGCCAAUUGGCGUUUUUUUAGAGGACCGGGAGAGCUACAA [AK1 SS Tryptophan B]
3. UACAUAUUAUUUAACAUAAAUUUUACAGAAGGAGCGUGAUCAUUCACAGGUAGGUCGCUGAACUAGUGAUGUUAGUUUUAUUUUU [JR_Nu_ExcArginiA_Sub025]
4. UUAGAUCAAAGAUCAGUCUUAUUGAGAGAACGAGGACCGGUACGGCCGCCACUCGAGUGAUGUUCGAGAACUCUCUUGACAAAUU [AK1 EXC Tryptophan A]
5. AAACAUUGGUGCGAUACCAGCUGAUCGGAAACGAUCAUGCUGGAGUGAUGUUCCAGGAAAAGCCCUUGGCAGCGCACCGAUGAAA [MAT - Same State Theophlline B - Mod of Eli - D29]
6. GCAACAUUGGCAGGAUAUCCUUCUCAGUGAUGUUGAGGGUUCAGCUAACGAAAGUUAGUUGUACCAGGAGAAGGGCUAAUGUUGC [Omei KL FMN B SS A v7]

Result string:
[238, 291, 97, 133, 275, 906]

Field: apparent KD of K4 kissing-loop reporter. Fill in for each record below.
1. CCGGCCCAGCCGGAUACCAGUGCGCCGCAGGGAACGGCGGGCCCAGAGUGAUGUUCGGGACACCCUUGGCAGCCGCCUGGGUCGC [#2 Same State - Theophylline B Attempt #27 (HarryS)]
2. CAGUUCCGUAGUGAUGUUACGAUCUCUGAUACCAGACAACUCUAAGUCCCUUGGCAGCAGUCAUUUUGCUUAAUAUUUACUCAAA [#08 K4 Theophylline A Exclusion]

Result string:
1: 314; 2: 170
